study.target: UniProtKB P23945
assay.method.text: FSH Receptor Radioligand Membrane Binding Assay ([125I]hFSH, CHO cell membranes)
Design: expressed in transfected cells; membrane homogenate
conditions: [125I]hFSH binding, CHO membranes with human FSH receptor; Sodium Salt
Structures can show the parent of a compound that is named as a salt.
quantity.measured: pIC50
One number for each entry, as −log10 of the molar value.

Inquiry: For the compound shown here, COc1ccc(N=Nc2c(S(=O)(=O)O)cc3cc(Nc4nc(Cl)nc(N(CCC(N)=O)CCC(N)=O)n4)ccc3c2O)cc1 [Example 9, Sodium Salt] , give the reported pIC50.
Reply text: 5.30

---

study.target: FSH receptor (Homo sapiens, UniProt P23945)
Sequence (P23945 18-695): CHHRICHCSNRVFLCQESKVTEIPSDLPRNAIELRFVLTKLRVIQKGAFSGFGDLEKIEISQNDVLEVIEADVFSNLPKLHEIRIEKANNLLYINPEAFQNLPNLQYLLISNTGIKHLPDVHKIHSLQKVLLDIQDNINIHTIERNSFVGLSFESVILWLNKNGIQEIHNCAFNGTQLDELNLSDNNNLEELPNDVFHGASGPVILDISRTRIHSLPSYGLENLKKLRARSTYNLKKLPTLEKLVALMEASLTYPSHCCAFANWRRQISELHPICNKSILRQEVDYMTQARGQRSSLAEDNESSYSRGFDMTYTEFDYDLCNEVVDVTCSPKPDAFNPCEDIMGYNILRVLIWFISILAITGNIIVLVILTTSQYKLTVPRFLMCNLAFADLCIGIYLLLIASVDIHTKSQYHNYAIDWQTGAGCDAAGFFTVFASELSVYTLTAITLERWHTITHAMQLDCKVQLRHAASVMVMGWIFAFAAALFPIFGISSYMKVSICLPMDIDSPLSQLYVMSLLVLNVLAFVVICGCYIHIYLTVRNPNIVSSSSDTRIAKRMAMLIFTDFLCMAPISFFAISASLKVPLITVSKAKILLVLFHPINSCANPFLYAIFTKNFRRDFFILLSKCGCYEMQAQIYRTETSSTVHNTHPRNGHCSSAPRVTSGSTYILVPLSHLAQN
assay.method.text: FSH Receptor Radioligand Membrane Binding Assay ([125I]hFSH, CHO cell membranes)
Design: expressed in transfected cells; membrane homogenate
conditions: [125I]hFSH binding, CHO membranes with human FSH receptor; listed as 3, Sodium Salt
Structures can show the parent of a compound that is named as a salt.
quantity.measured: pIC50
Give bare numbers, as −log10 of the molar value.

Inquiry: Would you mind telling me what pIC50 value was observed for COc1ccc(N=Nc2c(S(=O)(=O)O)cc3cc(Nc4nc(Cl)nc(N(CCC(N)=O)CCC(N)=O)n4)ccc3c2O)cc1 [Example 9, Sodium Salt] ?
Reply text: 5.22

---

study.target: FSH receptor (Homo sapiens, UniProt P23945)
Sequence (P23945 18-695): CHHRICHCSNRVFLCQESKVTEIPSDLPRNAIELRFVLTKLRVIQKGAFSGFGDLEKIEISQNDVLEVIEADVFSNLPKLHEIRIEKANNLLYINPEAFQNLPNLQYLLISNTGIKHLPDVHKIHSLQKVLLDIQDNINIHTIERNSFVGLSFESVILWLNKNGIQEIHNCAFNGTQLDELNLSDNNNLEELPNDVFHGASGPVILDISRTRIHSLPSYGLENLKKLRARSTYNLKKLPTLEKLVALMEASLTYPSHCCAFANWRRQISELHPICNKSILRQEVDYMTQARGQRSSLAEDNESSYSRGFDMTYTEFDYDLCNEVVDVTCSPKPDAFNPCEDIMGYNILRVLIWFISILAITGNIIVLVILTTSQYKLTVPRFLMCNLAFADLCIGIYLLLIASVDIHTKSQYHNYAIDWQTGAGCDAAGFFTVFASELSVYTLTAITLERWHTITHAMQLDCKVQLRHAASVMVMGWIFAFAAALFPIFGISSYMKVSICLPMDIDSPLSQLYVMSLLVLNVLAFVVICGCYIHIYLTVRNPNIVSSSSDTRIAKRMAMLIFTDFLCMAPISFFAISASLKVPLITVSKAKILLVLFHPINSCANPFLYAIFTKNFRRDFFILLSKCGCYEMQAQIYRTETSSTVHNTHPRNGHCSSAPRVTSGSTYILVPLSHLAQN
assay.method.text: FSH Receptor Radioligand Membrane Binding Assay ([125I]hFSH, CHO cell membranes)
Design: expressed in transfected cells; membrane homogenate
conditions: 10 μM; [125I]hFSH binding, CHO membranes with human FSH receptor; read-out: % Inhibition at 10 μM conc.
Procedure: FSH Receptor Radioligand Membrane Binding Assay Membrane Source: Chinese hamster ovarian cells stably transfected with the human FSH receptor were cultured (Ultra CHO medium containing 1% fetal bovine serum and 200 μg/mL G418) in and harvested. […] Receptor Binding Assay: Membrane homogenate (100 μl) was added to each well of a 96-well microtiter plate (Falcon # 3077). […] Total bound counts were determined by adding 50 μl binding buffer containing 4% DMSO to the designated wells. […]
Structures can show the parent of a compound that is named as a salt.
quantity.measured: inhibition at 10 µM (%)
Answers are plain numbers, in %.

Past entries and their recorded results:
Inquiry: Item COc1ccc(N=Nc2c(S(=O)(=O)O)cc3cc(NC(=O)c4ccc(OC)c(OC)c4)ccc3c2O)cc1 [Example 19] has what recorded inhibition at 10 µM?
Reply text: 19

Inquiry: Any idea what inhibition at 10 µM was measured for COc1ccc(N=Nc2c(S(=O)(=O)O)cc3cc(NC(=O)c4c(OC)cccc4OC)ccc3c2O)cc1 [Example 18] ?
Reply text: 10

Inquiry: For the molecule COc1ccc(N=Nc2c(S(=O)(=O)O)cc3cc(Nc4nc(Cl)nc(N(CCO)CCO)n4)ccc3c2O)cc1 [Example 11, Sodium Salt] , what inhibition at 10 µM is on record?
Reply text: 29

Inquiry: For the molecule COc1ccc(N=Nc2c(S(=O)(=O)O)cc3cc(NC(=O)c4cc(OC)cc(OC)c4)ccc3c2O)cc1 [Example 14] , what inhibition at 10 µM is on record?
Reply text: 14

Inquiry: May I ask what inhibition at 10 µM has been recorded for COc1ccc(N=Nc2c(S(=O)(=O)O)cc3cc(Nc4nc(Cl)nc(N(CCC(N)=O)CCC(N)=O)n4)ccc3c2O)cc1 [Example 9, Sodium Salt] ?
Reply text: 74

With those in mind, consider the next molecule.
Inquiry: Requested field: inhibition at 10 µM. Item: COc1ccc(N=Nc2c(S(=O)(=O)O)cc3cc(NC(=O)c4ccccc4)ccc3c2O)cc1 [Example 16]
Reply text: 11

// provenance: patent US6200963A
